Test system: KM12
Experiment: Growth inhibition of human KM12 cells after 48 hrs by sulforhodamine B assay
Format: functional, cell-based
Conditions: KM12, 48 h
Param label: returns YES when TGI < 4 µM, returns NO otherwise, including exact equality.

>  <test smiles>
O=C(Nc1cccc(-n2cc(-c3ccncc3)c(-c3ccc(Cl)c(O)c3)n2)c1)Nc1ccc(Cl)c(Cl)c1

>  <assigned label>
NO

$$$$
>  <test smiles>
COc1cc(-c2nn(-c3cccc(NC(=O)c4ccc(Cl)c(C(F)(F)F)c4)c3)cc2-c2ccncc2)ccc1Cl

>  <assigned label>
NO

$$$$
>  <test smiles>
COc1cc(-c2nn(-c3cccc(NC(=O)c4ccc(N5CCOCC5)c(C(F)(F)F)c4)c3)cc2-c2ccncc2)ccc1Cl

>  <assigned label>
NO

$$$$
>  <test smiles>
COc1cc(-c2nn(-c3cccc(NC(=O)Nc4cc(C(F)(F)F)cc(C(F)(F)F)c4)c3)cc2-c2ccncc2)ccc1Cl

>  <assigned label>
YES

$$$$
>  <test smiles>
COc1cc(-c2nn(-c3cccc(NC(=O)Nc4ccc(Cl)c(Cl)c4)c3)cc2-c2ccncc2)ccc1Cl

>  <assigned label>
YES

$$$$
>  <test smiles>
O=C(Nc1cccc(-n2cc(-c3ccncc3)c(-c3ccc(Cl)c(O)c3)n2)c1)c1ccc(N2CCOCC2)c(C(F)(F)F)c1

>  <assigned label>
NO

$$$$

The reported numbers originate from ChEMBL document CHEMBL2440076.
